FYI, the data here is from ChEMBL document CHEMBL6078681.

Test: AUC (0 to infinity) in Sprague-Dawley rat at 2 mg/kg, iv measured for 5 to 1440 mins by LC-MS/MS analysis
Format: ADME, organism-based
Details: in vivo, time 5-1440 min
readout: AUC(0-inf) (ng·h/mL)
Response body: numeric value in ng·h/mL, unit text excluded.

// query AUC(0-inf) value for entry "COc1ccc(-c2c(C#N)c(=O)n(Cc3ccccc3)c3c(N[C@H](C)c4ccccn4)cccc23)cc1"
399

* * *

Assay: Tmax in Sprague-Dawley rat at 2 mg/kg, iv measured for 5 to 1440 mins by LC-MS/MS analysis
Type: ADME, organism-based
Conditions: in vivo, time 5-1440 min
readout: Tmax (min)
Response body: numeric value in min, unit text excluded.

// query Tmax value for entry "COc1ccc(-c2c(C#N)c(=O)n(Cc3ccccc3)c3c(N[C@H](C)c4ccccn4)cccc23)cc1"
4.98
